Read-out: solute carrier (SLCO1B1), SLCO1B1 (gene 10599)
Test: LTEA_HepaRG_SLCO1B1: Life Technologies and Expression Analysis (LTEA) Assay for solute carrier (SLCO1B1) using HepaRG (AID 2283530)
Details: mRNA level, 48 h; actives raise or lower the signal
Active and inactive are the calls of the source. Rule for the calls: active = hit-call score of the fitted dose curve at least 0.9, where 1 is the maximum; inactive = score below 0.9.
readout name: AC50

Field: example entries. Status: answers known.
"CCCOC(=O)c1ccc(C(=O)OCCC)nc1" yielded AC50 of inactive

# compound "Oc1ccc(C(c2ccc(O)cc2)C(Cl)(Cl)Cl)cc1" ; its AC50 = inactive

For this compound ( "COCCO" ), measured AC50 is inactive

Notebook: "O=C(Nc1ccc([N+](=O)[O-])cc1Cl)c1cc(Cl)ccc1O" , AC50 read as 3.28 µM (active)

Next up:
Input "CCSC(=O)N(CC(C)C)CC(C)C" . Output AC50: inactive
